- subjectOfTest: Transcription factor E2F1 (Homo sapiens) (UniProt Q01094)
- Sequence (Q01094 whole entry, looked up): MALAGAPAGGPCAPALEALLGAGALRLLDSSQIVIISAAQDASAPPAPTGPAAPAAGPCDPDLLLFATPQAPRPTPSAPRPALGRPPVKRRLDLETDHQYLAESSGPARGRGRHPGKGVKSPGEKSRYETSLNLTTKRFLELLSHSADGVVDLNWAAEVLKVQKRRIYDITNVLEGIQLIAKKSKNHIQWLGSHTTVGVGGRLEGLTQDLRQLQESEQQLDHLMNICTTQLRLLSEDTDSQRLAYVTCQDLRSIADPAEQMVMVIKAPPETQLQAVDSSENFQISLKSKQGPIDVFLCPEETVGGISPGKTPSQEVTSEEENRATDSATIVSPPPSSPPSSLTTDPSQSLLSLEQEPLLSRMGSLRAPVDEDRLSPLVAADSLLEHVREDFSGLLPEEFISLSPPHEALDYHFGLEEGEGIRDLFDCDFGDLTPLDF
- testSummary: ATG_E2F_CIS: Attagene CIS-FACTORIAL HepG2 Assay for human E2F Transcription Factor 1 (AID 2282935)
- particulars: HepG2 Attagene cis-reporter, E2F reporter RNA transcripts; actives raise or lower the signal
Active and inactive are the calls of the source. The calls were made as follows: active = hit-call score of the fitted dose curve at least 0.9, where 1 is the maximum; inactive = score below 0.9.
Write down the outcome that applies. Available outcomes: active, inactive

Worked set:
O=C(O)c1cccc(C(=O)O)n1
inactive
c1cc2cccc3c4cccc5cccc(c(c1)c23)c54
inactive
NC(C(F)(F)F)C(F)(F)F
inactive
O=C1OC(=O)c2cc(-c3ccc4c(c3)C(=O)OC4=O)ccc21
inactive
O=C(O)C(F)(F)OC(F)(F)C(F)(F)OC(F)(F)C(F)(F)OC(F)(F)C(F)(F)C(F)(F)C(F)(F)F
inactive
O=C1C=CC(=O)N1c1cccc(N2C(=O)C=CC2=O)c1
inactive

Ask: What is the recorded call for this compound in the test? C=Cc1ccc(O)c(OC)c1
Result: inactive

Ask: Now consider COC1=CC(=O)C[C@@H](C)[C@]12Oc1c(Cl)c(OC)cc(OC)c1C2=O and answer again.
Result: inactive

Ask: Now consider Oc1c(Cl)ccc(Cl)c1Cl and answer again.
Result: inactive

Ask: Now consider CC(=O)Nc1ccc(O)cc1 and answer again.
Result: inactive

Ask: Now consider CC(=O)CC(C)C and answer again.
Result: inactive

Ask: Now consider CN(C)CCOC(c1ccccc1)c1ccccc1 and answer again.
Result: inactive

Ask: Now consider O=C(NCc1ncc(C(F)(F)F)cc1Cl)c1c(Cl)cccc1Cl and answer again.
Result: active

From: PubChem BioAssay (EPA / NIEHS)
